Recorded IC50 values for a group of compounds are listed next.
tested on: 186277-243-T-J2-PDC complex spheroid viability; test: Anticancer human tumor 186277-243-T-J2-PDC patient-derived colon adenocarcinoma cell line growth inhibition [POLQ]; settings: curve of compound;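 also: spheroids exposed to compounds for seven days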

- COMPOUND: "CNCc1ccc(-c2[nH]c3cc(F)cc4c3c2CCNC4=O)cc1"
  TESTED SYSTEM: "186277-243-T-J2-PDC complex spheroid viability"
  IC50: "> 10 µM"
- COMPOUND: "O=C(Nc1ccc(O)c(NS(=O)(=O)c2ccc(F)cc2)c1)c1ccc(-c2ccccc2)cc1"
  TESTED SYSTEM: "186277-243-T-J2-PDC complex spheroid viability"
  IC50: "> 10 µM"
- COMPOUND: "O=C(c1cc(Cc2n[nH]c(=O)c3ccccc23)ccc1F)N1CCN(C(=O)C2CC2)CC1"
  TESTED SYSTEM: "186277-243-T-J2-PDC complex spheroid viability"
  IC50: "> 10 µM"
- COMPOUND: "CCc1cc2c(N3CCc4c(cc(Cn5ccnc5)cc4-c4cn(C)nc4C(F)(F)F)C3=O)ccnc2c(OC)n1"
  TESTED SYSTEM: "186277-243-T-J2-PDC complex spheroid viability"
  IC50: "> 10 µM"
- COMPOUND: "CC(C)n1c(=O)n(C)c2cnc3cc(F)c(-c4ccc(OCCCN5CCCCC5)nc4)cc3c21"
  TESTED SYSTEM: "186277-243-T-J2-PDC complex spheroid viability"
  IC50: "> 10 µM"
- COMPOUND: "CC(=O)O[C@H]1C(=O)[C@@]2(C)[C@H]([C@H](OC(=O)c3ccccc3)[C@]3(O)C[C@H](OC(=O)[C@H](O)[C@@H](NC(=O)c4ccccc4)c4ccccc4)C(C)=C1C3(C)C)[C@]1(OC(C)=O)CO[C@@H]1C[C@@H]2O"
  TESTED SYSTEM: "186277-243-T-J2-PDC complex spheroid viability"
  IC50: "< 0.00949 µM"
- COMPOUND: "Cn1ncnc1[C@H]1c2n[nH]c(=O)c3cc(F)cc(c23)N[C@@H]1c1ccc(F)cc1"
  TESTED SYSTEM: "186277-243-T-J2-PDC complex spheroid viability"
  IC50: "> 0.1 µM"
- COMPOUND: "Nc1ccn(C2OC(CO)C(O)C2(F)F)c(=O)n1 (configuration not stated)"
  TESTED SYSTEM: "186277-243-T-J2-PDC complex spheroid viability"
  IC50: "< 0.0316 µM"
- COMPOUND: "C=CC(=O)N1CCN(c2nc(=O)n(-c3c(C)ccnc3C(C)C)c3nc(-c4c(O)cccc4F)c(F)cc23)C(C)C1 (configuration not stated)"
  TESTED SYSTEM: "186277-243-T-J2-PDC complex spheroid viability"
  IC50: "> 10 µM"
- COMPOUND: "COc1cccc(OCCCN)c1-c1cc(Nc2cnc(C#N)cn2)n[nH]1"
  TESTED SYSTEM: "186277-243-T-J2-PDC complex spheroid viability"
  IC50: "< 0.00316 µM"
- COMPOUND: "COc1cc2cc(C(=O)CCC(=O)O)sc2cc1OC"
  TESTED SYSTEM: "186277-243-T-J2-PDC complex spheroid viability"
  IC50: "> 10 µM"
- COMPOUND: "CCc1cc2c(N3CCc4c(cc(Cn5ccnc5)cc4-c4cn(C)nc4C(F)(F)F)C3=O)cc(C)nc2c(OC)n1"
  TESTED SYSTEM: "186277-243-T-J2-PDC complex spheroid viability"
  IC50: "> 10 µM"

Values compiled from PubChem BioAssay AID1963854.
